- measured.on: α3β2S148C nAChR (Rattus norvegicus, UniProt P04757+P12390, S174C)
- Sequence (P12390 25-500 S174C, one chain of several): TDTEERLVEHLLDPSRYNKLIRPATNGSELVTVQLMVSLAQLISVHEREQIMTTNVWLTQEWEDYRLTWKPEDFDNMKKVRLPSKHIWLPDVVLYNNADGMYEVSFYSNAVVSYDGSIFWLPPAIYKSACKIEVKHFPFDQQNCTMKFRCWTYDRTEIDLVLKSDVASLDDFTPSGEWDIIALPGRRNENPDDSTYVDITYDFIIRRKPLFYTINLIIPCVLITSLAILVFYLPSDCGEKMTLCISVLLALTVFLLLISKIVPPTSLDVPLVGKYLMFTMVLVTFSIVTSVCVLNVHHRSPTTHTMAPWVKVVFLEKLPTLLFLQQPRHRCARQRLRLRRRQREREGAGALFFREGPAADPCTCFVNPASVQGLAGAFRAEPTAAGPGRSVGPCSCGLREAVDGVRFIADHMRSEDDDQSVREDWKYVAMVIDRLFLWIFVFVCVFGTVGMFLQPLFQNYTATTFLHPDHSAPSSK
measured.endpoint: EC50
I'd appreciate it if you included the unit after the number.

Request body: readout EC50, system α3β2S148C nAChR (Rattus norvegicus, UniProt P04757+P12390, S174C), query Cc1ccsc1C=CC1=NCCCN1C.O=C(O)C(O)C(O)C(=O)O . Return the value.
110 µM

* * *

- measured.on: α3A106Cβ2 nAChR (Rattus norvegicus, UniProt P04757+P12390, A133C)
- Sequence (P04757 26-499 A133C): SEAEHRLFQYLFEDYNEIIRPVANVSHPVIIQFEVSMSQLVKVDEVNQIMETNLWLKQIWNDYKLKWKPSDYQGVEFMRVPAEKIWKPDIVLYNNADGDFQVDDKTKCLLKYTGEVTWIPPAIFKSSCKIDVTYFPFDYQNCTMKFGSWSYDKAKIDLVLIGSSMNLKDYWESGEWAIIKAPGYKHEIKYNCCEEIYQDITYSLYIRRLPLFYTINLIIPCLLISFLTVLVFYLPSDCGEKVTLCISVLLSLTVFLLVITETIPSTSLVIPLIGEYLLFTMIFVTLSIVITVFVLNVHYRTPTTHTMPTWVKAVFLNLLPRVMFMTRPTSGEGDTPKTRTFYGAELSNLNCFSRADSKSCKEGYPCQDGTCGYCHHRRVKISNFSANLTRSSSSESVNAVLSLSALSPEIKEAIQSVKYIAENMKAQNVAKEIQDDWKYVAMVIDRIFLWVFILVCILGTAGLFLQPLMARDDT
- Sequence (P12390 25-500): as the sequence (P12390 25-500 S174C, one chain of several) above, with C150S counted along it
measured.endpoint: EC50 (µM)
API: value field is a number in µM; no unit string.

GET /values?readout=EC50&system=α3A106Cβ2 nAChR (Rattus norvegicus, UniProt P04757+P12390, A133C)&item= Cc1ccsc1C=CC1=NCCCN1C.O=C(O)C(O)C(O)C(=O)O [Mor]
62

* * *

- measured.on: α3β2T150C nAChR (Rattus norvegicus, UniProt P04757+P12390, T176C)
- Sequence (P04757 26-499): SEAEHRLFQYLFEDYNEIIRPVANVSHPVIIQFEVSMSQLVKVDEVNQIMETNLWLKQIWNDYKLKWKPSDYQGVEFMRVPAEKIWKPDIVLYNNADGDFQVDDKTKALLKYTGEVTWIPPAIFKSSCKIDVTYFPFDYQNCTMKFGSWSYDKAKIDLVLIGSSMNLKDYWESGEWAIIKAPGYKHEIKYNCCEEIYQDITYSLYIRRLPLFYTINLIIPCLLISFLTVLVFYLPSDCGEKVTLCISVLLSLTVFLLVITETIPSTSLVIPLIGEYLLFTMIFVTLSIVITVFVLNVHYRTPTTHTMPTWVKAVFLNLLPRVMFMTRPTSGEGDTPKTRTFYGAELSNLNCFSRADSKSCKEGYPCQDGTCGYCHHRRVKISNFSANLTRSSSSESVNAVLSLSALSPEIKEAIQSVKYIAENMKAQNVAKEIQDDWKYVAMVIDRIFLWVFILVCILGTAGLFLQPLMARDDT
- Sequence (P12390 25-500 T176C): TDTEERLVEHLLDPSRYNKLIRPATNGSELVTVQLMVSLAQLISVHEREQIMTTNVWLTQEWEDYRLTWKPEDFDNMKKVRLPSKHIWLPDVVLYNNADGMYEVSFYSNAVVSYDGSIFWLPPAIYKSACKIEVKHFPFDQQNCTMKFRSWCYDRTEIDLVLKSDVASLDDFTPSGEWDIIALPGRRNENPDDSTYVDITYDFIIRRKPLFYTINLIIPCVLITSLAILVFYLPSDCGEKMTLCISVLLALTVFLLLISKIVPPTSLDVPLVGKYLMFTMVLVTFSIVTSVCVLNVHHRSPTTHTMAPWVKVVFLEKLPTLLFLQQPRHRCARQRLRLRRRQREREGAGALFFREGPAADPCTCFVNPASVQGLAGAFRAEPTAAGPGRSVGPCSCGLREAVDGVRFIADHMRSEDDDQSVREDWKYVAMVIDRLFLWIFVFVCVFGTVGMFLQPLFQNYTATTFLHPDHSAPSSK
- Assay type: cell-based
- measurement.context: Mor-evoked Response EC50, Mor as agonist
measured.endpoint: pEC50
FYI, pEC50 means -log10 of a concentration in mol per litre.

# get_value(readout='pEC50', item= Cc1ccsc1C=CC1=NCCCN1C.O=C(O)C(O)C(O)C(=O)O [Mor] )
4.59

* * *

- measured.on: α3β2T193C nAChR (Rattus norvegicus, UniProt P04757+P12390, T219C)
- Sequence (P04757 26-499): as the sequence (P04757 26-499) above
- Sequence (P12390 25-500 T219C): as the sequence (P12390 25-500 T176C) above, with C152T, T195C counted along it
measured.endpoint: EC50
Number first, unit second.

API: value(readout=EC50, system=α3β2T193C nAChR (Rattus norvegicus, UniProt P04757+P12390, T219C)) for record Cc1ccsc1C=CC1=NCCCN1C.O=C(O)C(O)C(O)C(=O)O
20 µM

* * *

- measured.on: α3β2T150C nAChR (Rattus norvegicus, UniProt P04757+P12390, T176C)
- Assay type: cell-based
- measurement.context: Mor EC50 after MTSBn, after 100 μM MTSBn, four 30-sec doses
measured.endpoint: EC50
Respond with the figure and its unit, in that order.

Reported EC50 for α3β2T150C nAChR (Rattus norvegicus, UniProt P04757+P12390, T176C), given Cc1ccsc1C=CC1=NCCCN1C.O=C(O)C(O)C(O)C(=O)O ?
80 µM

* * *

- measured.on: α3β2T150C nAChR (Rattus norvegicus, UniProt P04757+P12390, T176C)
- Format: cell-based
- measurement.context: Mor EC50 after BrACh, after 100 μM BrACh, four 30-sec doses
measured.endpoint: EC50 (µM)
A number alone suffices; assume µM.

Lab note: need EC50 with α3β2T150C nAChR (Rattus norvegicus, UniProt P04757+P12390, T176C) for entry Cc1ccsc1C=CC1=NCCCN1C.O=C(O)C(O)C(O)C(=O)O , please look it up.
30

* * *

- measured.on: α3β2T150C nAChR (Rattus norvegicus, UniProt P04757+P12390, T176C)
- Type: cell-based
- measurement.context: Mor EC50 after MTSET, after 100 μM MTSET, four 30-sec doses
measured.endpoint: EC50 (µM)
Please reply with the bare figure in µM and do not write the unit itself.

Field request: EC50 | item: Cc1ccsc1C=CC1=NCCCN1C.O=C(O)C(O)C(O)C(=O)O
20

Origin of measurements: paper PMC2726771
